Source of measurements: patent US10793533B2

- assay-info: Relaxometric properties: longitudinal relaxivity r1p in human plasma
- Type: physicochemical
- run-parameters: 1.41 T (60 MHz), expressed per mM gadolinium
measured-endpoint: r1p at 1.41 T 37° C., human plasma (mM⁻¹ s⁻¹)
Report the value in mM⁻¹ s⁻¹ with no unit label.

// query Item O=C(O)CN1CCN(CC(=O)O)CCN(CC(=O)O)CCN(CC(=O)O)CC1 [reference compound] has what recorded r1p at 1.41 T 37° C., human plasma?
// result 3.6

// query Item COCCOCCOCCOCCN(CC(O)CN1CCN(CC(=O)O)CCN(CC(=O)O)CCN(CC(=O)O)CC1)CC(O)CN1CCN(CC(=O)O)CCN(CC(=O)O)CCN(CC(=O)O)CC1 (stereo not drawn) has what recorded r1p at 1.41 T 37° C., human plasma?
// result 10.3

// query Item O=C(O)CN1CCN(CC(=O)O)CCN(CC(O)CN(CCOCCOCCO)CC(O)CN2CCN(CC(=O)O)CCN(CC(=O)O)CCN(CC(=O)O)CC2)CCN(CC(=O)O)CC1 (stereo not drawn) has what recorded r1p at 1.41 T 37° C., human plasma?
// result 10.4

// query Item CC(O)CN1CCN(CC(=O)O)CCN(CC(=O)O)CCN(CC(=O)O)CC1 (stereo not drawn) (Gd complex, metal not drawn) [ProHance, reference compound] has what recorded r1p at 1.41 T 37° C., human plasma?
// result 4.15

// query Item O=C(O)CN1CCN(CC(=O)O)CCN(CC(O)CN(CC(O)CN2CCN(CC(=O)O)CCN(CC(=O)O)CCN(CC(=O)O)CC2)C(COCCOCCO)COCCOCCO)CCN(CC(=O)O)CC1 (stereo not drawn) has what recorded r1p at 1.41 T 37° C., human plasma?
// result 9.8

// query Item COCCOCCOCCN(CCN(CCOCCOCCOC)CC(O)CN1CCN(CC(=O)O)CCN(CC(=O)O)CCN(CC(=O)O)CC1)CC(O)CN1CCN(CC(=O)O)CCN(CC(=O)O)CCN(CC(=O)O)CC1 (stereo not drawn) [Chelate Complex 9] has what recorded r1p at 1.41 T 37° C., human plasma?
// result 11.5

====

For each entry below, report its r1p at 0.47 T 37° C., human plasma value.
- assay-info: Relaxometric properties: longitudinal relaxivity r1p in human plasma
- Assay type: physicochemical
- run-parameters: 0.47 T (20 MHz), expressed per mM gadolinium
Report the value in mM⁻¹ s⁻¹ with no unit label.

// query Item O=C(O)CN1CCN(CC(=O)O)CCN(CC(=O)O)CCN(CC(=O)O)CC1 [reference compound] has what recorded r1p at 0.47 T 37° C., human plasma?
// result 4.5

// query Item CC(O)CN1CCN(CC(=O)O)CCN(CC(=O)O)CCN(CC(=O)O)CC1 (stereo not drawn) (Gd complex, metal not drawn) [ProHance, reference compound] has what recorded r1p at 0.47 T 37° C., human plasma?
// result 4.9

// query Item O=C(O)CN1CCN(CC(=O)O)CCN(CC(O)CN(CCOCCOCCO)CC(O)CN2CCN(CC(=O)O)CCN(CC(=O)O)CCN(CC(=O)O)CC2)CCN(CC(=O)O)CC1 (stereo not drawn) has what recorded r1p at 0.47 T 37° C., human plasma?
// result 10.9

// query Item COCCOCCOCCOCCN(CC(O)CN1CCN(CC(=O)O)CCN(CC(=O)O)CCN(CC(=O)O)CC1)CC(O)CN1CCN(CC(=O)O)CCN(CC(=O)O)CCN(CC(=O)O)CC1 (stereo not drawn) has what recorded r1p at 0.47 T 37° C., human plasma?
// result 10.6

// query Item O=C(O)CN1CCN(CC(=O)O)CCN(CC(O)CN(CC(O)CN2CCN(CC(=O)O)CCN(CC(=O)O)CCN(CC(=O)O)CC2)C(COCCOCCO)COCCOCCO)CCN(CC(=O)O)CC1 (stereo not drawn) has what recorded r1p at 0.47 T 37° C., human plasma?
// result 10.1

// query Item COCCOCCOCCN(CCN(CCOCCOCCOC)CC(O)CN1CCN(CC(=O)O)CCN(CC(=O)O)CCN(CC(=O)O)CC1)CC(O)CN1CCN(CC(=O)O)CCN(CC(=O)O)CCN(CC(=O)O)CC1 (stereo not drawn) [Chelate Complex 9] has what recorded r1p at 0.47 T 37° C., human plasma?
// result 12.1
